- TESTED TARGET: recombinant cPLA2 (Homo sapiens, UniProt P47712)
- Construct: purchased US Biological P4074-03R
- Sequence (P47712 whole entry): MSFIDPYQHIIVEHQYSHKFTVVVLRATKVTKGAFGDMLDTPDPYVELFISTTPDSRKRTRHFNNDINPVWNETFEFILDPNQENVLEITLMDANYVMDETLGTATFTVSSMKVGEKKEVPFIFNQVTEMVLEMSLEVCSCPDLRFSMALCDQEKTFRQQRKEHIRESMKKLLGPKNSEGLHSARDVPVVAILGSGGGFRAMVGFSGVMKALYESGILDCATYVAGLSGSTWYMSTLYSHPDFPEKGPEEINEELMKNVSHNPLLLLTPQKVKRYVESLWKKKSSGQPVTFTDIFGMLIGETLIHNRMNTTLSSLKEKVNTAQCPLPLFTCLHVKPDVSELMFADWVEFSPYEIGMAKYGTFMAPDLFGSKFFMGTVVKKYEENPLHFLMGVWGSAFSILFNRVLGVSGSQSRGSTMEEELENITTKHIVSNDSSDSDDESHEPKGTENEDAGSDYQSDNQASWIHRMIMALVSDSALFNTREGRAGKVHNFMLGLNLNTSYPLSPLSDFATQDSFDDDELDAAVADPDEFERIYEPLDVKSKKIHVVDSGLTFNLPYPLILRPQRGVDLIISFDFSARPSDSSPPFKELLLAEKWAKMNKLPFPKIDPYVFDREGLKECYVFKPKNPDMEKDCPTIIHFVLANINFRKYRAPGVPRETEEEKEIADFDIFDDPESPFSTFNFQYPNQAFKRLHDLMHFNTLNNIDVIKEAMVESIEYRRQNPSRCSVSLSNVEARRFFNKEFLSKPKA
- ASSAY SUMMARY: EnzChek phospholipase A2 fluorogenic assay (% activity) at 10 μM
- Format: biochemical
- EXPERIMENTAL PARAMETERS: 10 μM compound
Below is a list of entries, each paired with its recorded inhibition at 10 µM value.

The examples below pair each entry with its known result.
compound=CCCCC/C=C\C/C=C\C/C=C\C/C=C\CCCC(=O)NCc1cccc(C(=O)O)c1 tested_target="recombinant cPLA2 (Homo sapiens, UniProt P47712)" assay_value=64.4%
compound=CCCCC/C=C\C/C=C\C/C=C\C/C=C\CCCC(=O)C(F)F tested_target="recombinant cPLA2 (Homo sapiens, UniProt P47712)" assay_value=59.8%

-- ask Report inhibition at 10 µM on recombinant cPLA2 (Homo sapiens, UniProt P47712) for this entry: CCC/C=C\C/C=C\C/C=C\C/C=C\CCCC(=O)C(F)(F)F
-- reply 63%

-- ask Specify inhibition at 10 µM for CCCCC/C=C\C/C=C\C/C=C\C/C=C\CCCC(=O)C(F)(F)F [1a, arachidonyl trifluoromethyl ketone, reference compound] , system recombinant cPLA2 (Homo sapiens, UniProt P47712).
-- reply 60%

-- ask Answer briefly: inhibition at 10 µM recorded on recombinant cPLA2 (Homo sapiens, UniProt P47712) for CCCCCC/C=C\C/C=C\C/C=C\C/C=C\CCC(=O)C(F)(F)F
-- reply 59.5%

-- ask Param request: inhibition at 10 µM | system recombinant cPLA2 (Homo sapiens, UniProt P47712) | item CCCCC/C=C\C/C=C\C/C=C\C/C=C\CCCC(=O)NCCCCCC(=O)OC [20c]
-- reply 15.2%
